For each of the molecules below, state its Enzyme activity remaining after gamma-irradiation.
Test system: Sandostatin
Experiment: Recovery of structural integrity of Sandostatin in dry formulations following gamma irradiation (HPLC)
Type: physicochemical
Details: Table 12, superoxide scavengers, structural integrity by HPLC, excipient:Sandostatin weight ratio 10:1, 25-40 kGy
Respond with the bare value in %.

Summary for this molecule, OC[C@@H](O)[C@@H](O)[C@H](O)[C@H](O)CO : Enzyme activity remaining after gamma-irradiation is 72.6

Summary for this molecule, CSCC[C@H](N)C(=O)O : Enzyme activity remaining after gamma-irradiation is 91.1

Summary for this molecule, O=S(=O)(O)c1cc(O)c(O)c(S(=O)(=O)O)c1 : Enzyme activity remaining after gamma-irradiation is 89.7

Summary for this molecule, O=C(O)CC(O)(CC(=O)O)C(=O)O [Citrate] : Enzyme activity remaining after gamma-irradiation is 91.8

Summary for this molecule, O=C(O)CC(O)C(=O)O (centres unmarked) [Malate] : Enzyme activity remaining after gamma-irradiation is 87.7

meta.source: patent US20100029542A1
